Can you tell me pIC50 for the items I'm about to list?
Molecular target: human TLR9 (Homo sapiens, UniProt Q9NR96)
Sequence (Q9NR96 26-1032): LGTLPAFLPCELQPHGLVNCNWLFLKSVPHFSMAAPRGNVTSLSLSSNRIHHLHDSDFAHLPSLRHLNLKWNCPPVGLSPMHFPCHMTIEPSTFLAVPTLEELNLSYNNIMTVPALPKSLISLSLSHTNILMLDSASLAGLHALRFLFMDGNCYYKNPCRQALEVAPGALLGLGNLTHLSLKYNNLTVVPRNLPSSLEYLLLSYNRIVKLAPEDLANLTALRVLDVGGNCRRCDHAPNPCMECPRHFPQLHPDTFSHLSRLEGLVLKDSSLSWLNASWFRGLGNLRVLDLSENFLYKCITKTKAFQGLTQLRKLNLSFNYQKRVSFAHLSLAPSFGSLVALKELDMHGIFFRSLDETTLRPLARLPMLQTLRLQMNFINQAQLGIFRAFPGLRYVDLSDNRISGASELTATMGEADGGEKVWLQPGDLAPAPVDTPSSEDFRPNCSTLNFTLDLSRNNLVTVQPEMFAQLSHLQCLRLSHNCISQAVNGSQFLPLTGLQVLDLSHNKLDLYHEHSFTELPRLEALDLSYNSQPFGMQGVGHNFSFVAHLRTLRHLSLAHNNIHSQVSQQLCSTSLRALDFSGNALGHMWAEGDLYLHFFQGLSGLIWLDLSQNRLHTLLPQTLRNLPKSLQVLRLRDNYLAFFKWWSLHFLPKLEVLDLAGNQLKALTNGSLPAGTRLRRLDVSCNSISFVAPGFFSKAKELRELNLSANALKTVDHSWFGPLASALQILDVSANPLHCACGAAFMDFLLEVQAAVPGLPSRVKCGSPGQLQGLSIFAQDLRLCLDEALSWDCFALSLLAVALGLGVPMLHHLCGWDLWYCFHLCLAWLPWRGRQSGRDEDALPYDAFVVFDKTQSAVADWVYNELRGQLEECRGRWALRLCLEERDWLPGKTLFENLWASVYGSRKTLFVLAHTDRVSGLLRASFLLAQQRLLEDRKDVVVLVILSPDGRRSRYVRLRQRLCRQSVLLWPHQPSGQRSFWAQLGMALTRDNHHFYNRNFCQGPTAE
Assay: TLR9 inhibition reporter assay (HEK-Blue, SEAP)
Conditions: HEK-Blue cells overexpressing human TLR9, ODN2006 5 nM, 22 hour incubation
pIC50: −log10 of the molar value.

Request: I'd like to know its pIC50. The compound in question is Cc1c(-c2[nH]c3ccc(C4CCN(C5COC5)CC4)cc3c2C(C)C)cn2cnnc2c1Cl [Example 82]
Response: ≤ 4.30

Request: I'd like to know its pIC50. The compound in question is CC(C)c1c(-c2ccc3nncn3c2)[nH]c2ccc(C3CCN(Cc4ncn(C)n4)CC3)cc12 [Example 23]
Response: ≤ 4.30

Request: I'd like to know its pIC50. The compound in question is Cc1c(-c2[nH]c3ccc(C4C[C@H]5CC[C@@H](C4)N5C4COC4)cc3c2C(C)C)cn2cnnc2c1C (single isomer, unassigned) [Example 123]
Response: 5.07
